Target: CB2 receptor (Homo sapiens, UniProt P34972)
Sequence (P34972 whole entry): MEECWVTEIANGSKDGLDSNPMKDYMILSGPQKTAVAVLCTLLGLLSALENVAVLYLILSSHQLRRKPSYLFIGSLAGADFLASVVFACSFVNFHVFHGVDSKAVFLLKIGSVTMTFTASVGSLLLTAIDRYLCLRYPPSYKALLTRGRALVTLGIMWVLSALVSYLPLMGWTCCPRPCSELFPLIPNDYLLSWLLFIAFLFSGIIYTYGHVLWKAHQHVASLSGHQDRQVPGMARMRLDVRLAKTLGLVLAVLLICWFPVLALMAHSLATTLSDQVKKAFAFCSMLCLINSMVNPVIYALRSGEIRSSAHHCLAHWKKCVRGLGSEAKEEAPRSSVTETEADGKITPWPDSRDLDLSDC
Experiment: cAMP Assay #1: CB2 adenylylcyclase assay in CHO cells
Assay type: cell-based
Parameters: expressed in transfected cells; host or cells: CHO cells
pEC50: −log10 of the molar value.
Reported pEC50 by item:
endpoint-label: pEC50

compound	measurement-target	value-prefix	numeric-result
CCCCCCC(C)(C)c1cc(O)c2c(c1)OC(C)(C)[C@@H]1CC=C(C(=O)O)C[C@@H]21 [AJA, reference compound]	CB2 receptor (Homo sapiens, UniProt P34972)	=	7.68
CCCCCCC(C)(C)c1cc(OC)c2c(c1)OC(C)(C)[C@@H]1CC=C(C(=O)O)C[C@@H]21	CB2 receptor (Homo sapiens, UniProt P34972)	<	6.52
CCCCCCC(C)(C)c1cc(O)c2c(c1)OC(C)(C)[C@@H]1CC=C(C(=O)OC)C[C@@H]21	CB2 receptor (Homo sapiens, UniProt P34972)	=	7.23
CCCCCCC(C)(C)c1cc(O)c2c(c1)OC(C)(C)[C@@H]1CC=C(C(=O)NC3CC3)C[C@@H]21	CB2 receptor (Homo sapiens, UniProt P34972)	>	8.52
CC(C)(c1ccccc1)c1cc(O)c2c(c1)OC(C)(C)[C@@H]1CC=C(C(=O)O)C[C@@H]21	CB2 receptor (Homo sapiens, UniProt P34972)	<	6.52
CCCCCCC(C)(C)c1cc(O)c2c(c1)OC(C)(C)c1ccc(C(=O)O)cc1-2	CB2 receptor (Homo sapiens, UniProt P34972)	=	7.28
CCCCCCC(C)(C)c1cc(O)c2c(c1)OC(C)(C)[C@@H]1CC=C(C(=O)OC(C)C)C[C@@H]21	CB2 receptor (Homo sapiens, UniProt P34972)	=	8.64
CCCCCCC(C)(C)c1cc(O)c2c(c1)OC(C)(C)[C@@H]1CC=C(C(=O)NCCO)C[C@@H]21	CB2 receptor (Homo sapiens, UniProt P34972)	=	8.48
